- Assay Overview: growth inhibition of GSK3B-pretreated HCT116 cells – cell-based, CellTiter-Glo, 0.2 to 20 µM (AID 1117336)
- Condition Context: HCT116 viability after GSK3B inhibitor, at 20 µM, hits give high values
The source made the active and inactive calls.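 The calls were made as follows: active = compounds lowering colon cancer cell viability after pretreatment blocking the GSK3B kinase; inactive = the rest.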
# viability decrease listing for each entry below
Quantity Measured: viability decrease

>>> result("Cc1c(C)n(CCN(C)C)c2ccc(C(=O)OCCN(C)C)cc12")
"41.2% (inactive)"
>>> result("CCC(CC)(CC(=O)Nc1cccc(/C=C/c2nc(C3CCC3)cs2)c1)C(=O)O")
"96.6% (active)"
>>> result("CC(COc1ccccc1)NN (configuration not stated)")
"26.7% (inactive)"
>>> result("CCCCC(O)c1ccccc1 (configuration not stated)")
"-9.5% (inactive)"
>>> result("CCN(CC)CCOc1ccc2c(c1)C(=O)c1cc(OCCN(CC)CC)ccc1-2")
"-16.4% (inactive)"
>>> result("CCCCCCCCCCOc1cc2c(=O)c(C(=O)OCC)c[nH]c2cc1OCC")
"-29.2% (inactive)"
>>> result("OCCc1ccccc1")
"-30.2% (inactive)"
>>> result("CC[C@H](c1ccc(O)cc1)[C@@H](CC)c1ccc(O)cc1")
"89.6% (active)"
>>> result("FC(F)(F)c1ccccc1-n1ccnc1")
"2% (inactive)"
>>> result("O=S1(=O)c2cccc3cccc(c23)N1CCCN1CCN(c2ccc(F)cc2)CC1")
"74.5% (active)"
>>> result("O=C(OOC(=O)c1ccccc1)c1ccccc1")
"-5.45% (inactive)"
>>> result("COc1cc(N)c(Cl)cc1C(=O)NC1CCN(CCCOc2ccc(F)cc2)CC1OC (configuration not stated)")
"20.6% (inactive)"
>>> result("CC[N+](CC)(CC(=O)Nc1c(C)cccc1C)Cc1ccccc1")
"-6.6% (inactive)"
>>> result("CCN(C)C(=O)Oc1cccc([C@H](C)N(C)C)c1")
"5.7% (inactive)"
>>> result("CC(=O)N(c1onc(C)c1C)S(=O)(=O)c1ccc(N)cc1")
"-73.1% (inactive)"
>>> result("COCCCN1CCC(NC(=O)c2cc(Cl)c(N)c3c2OCC3)CC1")
"-4.2% (inactive)"
>>> result("C1COC(NC(C2CC2)C2CC2)=N1")
"-1.8% (inactive)"
>>> result("CCN(CC)C(=O)c1cccnc1")
"6.1% (inactive)"
>>> result("O=C1NC(=O)[C@@]2(CCOc3ccc(F)cc32)N1")
"-5.9% (inactive)"
>>> result("COc1cc(C(C)=O)ccc1OCCCN1CCC(c2noc3cc(F)ccc23)CC1")
"66.1% (active)"
>>> result("COc1nccnc1NS(=O)(=O)c1ccc(N)cc1")
"3.6% (inactive)"
>>> result("CN1C(=O)CC(C)(c2ccccc2)C1=O (configuration not stated)")
"-2.5% (inactive)"
>>> result("C=CCNC(N)=S")
"-2.15% (inactive)"
>>> result("C[C@H]1O[C@H](O[C@H]2[C@H](O)[C@@H](O)[C@@H](O[C@H]3[C@H](O)[C@@H](O)[C@H](O)O[C@@H]3CO)O[C@@H]2CO)[C@H](O)[C@@H](O)[C@@H]1N[C@H]1C=C(CO)[C@@H](O)[C@H](O)[C@H]1O")
"-5.3% (inactive)"
>>> result("C#C[C@]1(O)CC[C@H]2[C@@H]3CCc4cc(OC5CCCC5)ccc4[C@H]3CC[C@@]21C")
"102% (active)"
>>> result("COC(=O)C1=C(C)NC(C)=C(C(=O)OC)C1c1ccccc1[N+](=O)[O-]")
"77.9% (active)"
>>> result("NC(=O)n1c(O)c(C(=O)c2cccs2)c2cc(Cl)ccc21")
"106% (active)"
>>> result("NS(=O)(=O)c1cc2c(cc1Cl)NC(CC1CCCC1)NS2(=O)=O (configuration not stated)")
"1% (inactive)"
>>> result("O=C(CCCN1CCC(O)(c2ccc(Cl)cc2)CC1)c1ccc(F)cc1")
"75.7% (active)"
>>> result("CCCCCCC[N+](CC)(CC)CCCCc1ccc(Cl)cc1")
"95.1% (active)"
>>> result("CC1=C(C(=O)OC(C)C)C(c2cccc([N+](=O)[O-])c2)C(C(=O)OC2CN(C(c3ccccc3)c3ccccc3)C2)=C(N)N1 (configuration not stated)")
"111% (active)"
>>> result("NC(=O)c1cn(Cc2c(F)cccc2F)nn1")
"-3.55% (inactive)"
>>> result("NCCCC(N)(C(=O)O)C(F)F (configuration not stated)")
"6.2% (inactive)"
>>> result("Clc1ccc(C(Cn2ccnc2)OCc2c(Cl)cccc2Cl)c(Cl)c1 (configuration not stated)")
"110% (active)"
>>> result("CC(C)(C)NC(=O)[C@@H]1C[C@@H]2CCCC[C@H]2CN1C[C@@H](O)[C@H](Cc1ccccc1)NC(=O)[C@H](CC(N)=O)NC(=O)c1ccc2ccccc2n1")
"45.8% (inactive)"
>>> result("CNC1CCCN(c2c(F)cc3c(=O)c(C(=O)O)cn(C4CC4)c3c2OC)C1 (configuration not stated)")
"42.9% (inactive)"
>>> result("CC[N+](CC)(CCNC(=O)C(=O)NCC[N+](CC)(CC)Cc1ccccc1Cl)Cc1ccccc1Cl")
"-14.5% (inactive)"
>>> result("CN(C)CCN1C(=O)c2ccccc2N(C)c2ccccc21")
"8.2% (inactive)"
>>> result("NCCC(O)(P(=O)(O)O)P(=O)(O)O")
"-16% (inactive)"
>>> result("CN(C)C/C=C(/c1ccc(Br)cc1)c1cccnc1")
"-1.3% (inactive)"
>>> result("CN1CCCC(CC2c3ccccc3Sc3ccccc32)C1 (configuration not stated)")
"45.1% (inactive)"
>>> result("Cc1ncc(CO)c(CO)c1O")
"4.5% (inactive)"
>>> result("COc1c2occc2cc2ccc(=O)oc12")
"-33.7% (inactive)"
>>> result("CC(C(=O)O)c1ccc2c(c1)Cc1cccnc1O2 (configuration not stated)")
"-8.3% (inactive)"
>>> result("COc1ccc(Cc2cnc(N)nc2N)cc1OC")
"-3.05% (inactive)"
>>> result("NC(=O)Cc1cccc(C(=O)c2ccccc2)c1N")
"4.9% (inactive)"
>>> result("CCOCC(O)COc1ccc(NC(=O)CC[S+](C)C)cc1 (configuration not stated)")
"-7.6% (inactive)"

###

- Assay Overview: fluorescence interference in NS3h assay format, artefact control for HCV NS3 helicase inhibitor project, biochemical, NIH Clinical Collection (AID 743272);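 also: HCV NS3 helicase with a Cy5 labelled single stranded DNA probe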
- Condition Context: fluorescence interference counterscreen, hits give low values
Quantity Measured: fluorescence ratio

>>> numeric_readout("CNCCC(Oc1ccc(C(F)(F)F)cc1)c1ccccc1 (configuration not stated)")
1.03
>>> numeric_readout("Cc1occc(=O)c1O")
0.97
>>> numeric_readout("CC(C)NCC(O)COc1cccc2ccccc12 (configuration not stated)")
0.93
>>> numeric_readout("O=C(O)COCCN1CCN(C(c2ccccc2)c2ccc(Cl)cc2)CC1 (configuration not stated)")
1.01
>>> numeric_readout("COc1ccc(-c2oc3c(CC=C(C)C)c(O[C@@H]4O[C@H](CO)[C@@H](O)[C@H](O)[C@H]4O)cc(O)c3c(=O)c2O[C@@H]2O[C@@H](C)[C@H](O)[C@@H](O)[C@H]2O)cc1")
0.98
>>> numeric_readout("C#C[C@]1(O)CC[C@H]2[C@@H]3CCC4=CC(=O)CC[C@@H]4[C@H]3CC[C@@]21C")
0.96
>>> numeric_readout("NC(=O)c1cccnc1")
1.01
>>> numeric_readout("COc1c2occc2cc2ccc(=O)oc12")
1.02
>>> numeric_readout("Cn1cc[nH]c1=S")
1.03
>>> numeric_readout("CCCCC(=O)O[C@H]1CC[C@H]2[C@@H]3CCc4cc(O)ccc4[C@H]3CC[C@]12C")
0.91
>>> numeric_readout("CC(C)NCC(O)COc1ccc(CC(N)=O)cc1 (configuration not stated)")
0.98
>>> numeric_readout("CCCC(=O)Nc1ccc(OCC(O)CNC(C)C)c(C(C)=O)c1 (configuration not stated)")
1.03
>>> numeric_readout("CCCC(CCC)C(=O)O")
0.99
>>> numeric_readout("COc1ccc(/C=C/C(=O)Nc2ccccc2C(=O)O)cc1OC")
0.99
>>> numeric_readout("O=C(O[C@@H]1Cc2c(O)cc(O)cc2O[C@@H]1c1cc(O)c(O)c(O)c1)c1cc(O)c(O)c(O)c1")
0.8
>>> numeric_readout("C[C@]12CC[C@@H]3c4ccc(O)cc4CC[C@H]3[C@@H]1CC[C@@H]2O")
0.97
>>> numeric_readout("O=C(CCCN1CCC(O)(c2ccc(Cl)cc2)CC1)c1ccc(F)cc1")
0.89
>>> numeric_readout("CCN1CCN(C(=O)N[C@@H](C(=O)N[C@@H]2C(=O)N3[C@@H]2SC(C)(C)[C@@H]3C(=O)O)c2ccccc2)C(=O)C1=O")
0.98
>>> numeric_readout("CN/C(=C\\[N+](=O)[O-])NCCSCc1ccc(CN(C)C)o1")
0.89
>>> numeric_readout("COc1ccc(-c2cc(=O)c3c(OC)c(OC)c(OC)c(OC)c3o2)cc1OC")
0.96
>>> numeric_readout("C[C@H]1COc2c(N3CCN(C)CC3)c(F)cc3c(=O)c(C(=O)O)cn1c23")
1
>>> numeric_readout("O=C(NCC1CCCCN1)c1cc(OCC(F)(F)F)ccc1OCC(F)(F)F (configuration not stated)")
0.81
